Test system: weaned piglets
Conditions: 50 mg/kg in feed (as copper ion); weaned piglets, 30 days
Quick reference: Average weight gain of the listed items.
Give the quantity in kg, number only.

>>> numeric_readout("NC(CC(=O)[O-])C(=O)[O-].O.O.[Cu+2] (racemic) [Compound 7, [(Cu(II))(DL-Asp)(H2O)2]·(H2O)0.16]")
12.16

Now examine the next entry.
Identify measured Average weight gain corresponding to N[C@@H](CC(=O)[O-])C(=O)[O-].O.O.[Cu+2] [Compound 3, [(Cu(II))(L-Asp)(H2O)2]·(H2O)0.62]
11.92

====

System: Lingnan yellow-feathered, fast-growing, and large-sized broilers
Details: 50 mg/kg in feed (as copper ion); broilers aged 1 to 21 days; relative to control group
Quick reference: Relative weight gain rate (%) of the listed items.
Give the quantity in %, number only.

Study these solved cases before continuing.
>>> numeric_readout("N[C@@H](CC(=O)[O-])C(=O)[O-].O.O.[Cu+2] [Compound 1, [(Cu(II))(L-Asp)(H2O)2]]")
109.3
>>> numeric_readout("NC(CC(=O)[O-])C(=O)[O-].O.O.[Cu+2] (racemic) [Compound 7, [(Cu(II))(DL-Asp)(H2O)2]·(H2O)0.16]")
108.6
>>> numeric_readout("N[C@@H](CC(=O)[O-])C(=O)[O-].[Cu+2] [Compound 4, [(Cu(II))(L-Asp)]]")
107.2
>>> numeric_readout("N[C@@H](CC(=O)[O-])C(=O)[O-].O.O.[Cu+2] [Compound 2, [(Cu(II))(L-Asp)(H2O)2]. (H2O)0.34]")
107.4
>>> numeric_readout("N[C@@H](CC(=O)[O-])C(=O)[O-].O.O.[Cu+2] [Compound 3, [(Cu(II))(L-Asp)(H2O)2]·(H2O)0.62]")
108.4

Identify measured Relative weight gain rate (%) corresponding to NC(CC(=O)[O-])C(=O)[O-].O.O.[Cu+2] (racemic) [Compound 5, [(Cu(II))(DL-Asp)(H2O)2]]
106.1

Identify measured Relative weight gain rate (%) corresponding to N[C@@H](CC(=O)[O-])C(=O)[O-].[Cu+2] (racemic) [Compound 6, [(Cu(II))(DL-Asp)]]
107.6

====

System: weaned piglets
Conditions: 50 mg/kg in feed (as copper ion); weaned piglets, 30 days
Endpoint name: Feed-to-meat ratio
Simply state the number, no unit and no words.

Study these solved cases before continuing.
>>> numeric_readout("NC(CC(=O)[O-])C(=O)[O-].O.O.[Cu+2] (racemic) [Compound 5, [(Cu(II))(DL-Asp)(H2O)2]]")
2.184
>>> numeric_readout("N[C@@H](CC(=O)[O-])C(=O)[O-].O.O.[Cu+2] [Compound 3, [(Cu(II))(L-Asp)(H2O)2]·(H2O)0.62]")
2.114

Now examine the next entry.
Identify measured Feed-to-meat ratio corresponding to N[C@@H](CC(=O)[O-])C(=O)[O-].O.O.[Cu+2] [Compound 1, [(Cu(II))(L-Asp)(H2O)2]]
2.121

====

System: Lingnan yellow-feathered, fast-growing, and large-sized broilers
Details: 50 mg/kg in feed (as copper ion); broilers aged 1 to 21 days
Quick reference: Average weight gain of the listed items.
Give the quantity in g, number only.

Identify measured Average weight gain corresponding to NC(CC(=O)[O-])C(=O)[O-].O.O.[Cu+2] (racemic) [Compound 5, [(Cu(II))(DL-Asp)(H2O)2]]
503

Identify measured Average weight gain corresponding to N[C@@H](CC(=O)[O-])C(=O)[O-].O.O.[Cu+2] [Compound 2, [(Cu(II))(L-Asp)(H2O)2]. (H2O)0.34]
509
